Tested on: LOC_OS04G38480-cb003
Sequence (as listed by the source): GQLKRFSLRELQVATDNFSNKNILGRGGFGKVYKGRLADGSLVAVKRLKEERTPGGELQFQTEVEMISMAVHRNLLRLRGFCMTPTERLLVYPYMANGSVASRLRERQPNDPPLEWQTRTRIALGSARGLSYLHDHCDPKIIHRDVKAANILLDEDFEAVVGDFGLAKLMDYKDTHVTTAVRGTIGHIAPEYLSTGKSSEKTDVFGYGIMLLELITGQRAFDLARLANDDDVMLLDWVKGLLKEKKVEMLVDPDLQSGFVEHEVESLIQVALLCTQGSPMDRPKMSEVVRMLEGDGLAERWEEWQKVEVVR
assay method text: thermal shift delta Tm vs DMSO control; higher = stronger stabilization (binding);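 further: purified Escherichia coli-expressed rice kinase domain construct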
assay context: 12.5 µM; protein concentration 2 µM
assay endpoint: thermal shift delta Tm (°C)
API: value field is a number in °C; no unit string.

| chem smiles | tested system | thermal shift delta Tm / °C |
| --- | --- | --- |
| C[C@@H]1COC(Nc2ccc3ncnc(Nc4ccc(OCc5nccs5)c(Cl)c4)c3c2)=N1 | LOC_OS04G38480-cb003 | 1.56 |
| CN1CCN(c2ccc(Nc3cc(-c4cccc(-n5ccc6cc(C7CC7)cc(F)c6c5=O)c4CO)cn(C)c3=O)nc2)CC1 | LOC_OS04G38480-cb003 | 1.08 |
| COc1cc2ncc(-c3ccccc3)nc2cc1OC | LOC_OS04G38480-cb003 | 0.73 |
| CO[C@H]1C[C@@H]2CC[C@@H](C)[C@@](O)(O2)C(=O)C(=O)N2CCCC[C@H]2C(=O)O[C@H]([C@H](C)C[C@@H]2CC[C@H](n3cnnn3)[C@H](OC)C2)CC(=O)[C@H](C)/C=C(\C)[C@@H](O)[C@@H](OC)C(=O)[C@H](C)C[C@H](C)/C=C/C=C/C=C/1C | LOC_OS04G38480-cb003 | 2.27 |
| O=C(NOCCO)c1ccc2cncn2c1Nc1ccc(I)cc1F | LOC_OS04G38480-cb003 | -1.85 |

Ask: // query thermal shift delta Tm value for entry CCS(=O)(=O)Nc1ccc2c(c1)/C(=C(/Nc1ccc(CN3CCCCC3)cc1)c1ccccc1)C(=O)N2
Result: 4.11

Ask: // query thermal shift delta Tm value for entry C[C@@H](N)c1ccc(C(=O)Nc2ccnc3[nH]ccc23)cc1
Result: 2.01

====

System: LOC_OS07G07230-cb001
assay method text: thermal shift delta Tm vs DMSO control; higher = stronger stabilization (binding)
assay context: 12.5 µM; protein concentration 2 µM
Label scheme, based on thermal shift delta Tm: LOW = under 0.09 °C, MEDIUM = from 0.09 °C up to 0.5 °C, HIGH = 0.5 °C and over

Ask: Which of the defined bands does the recorded thermal shift delta Tm of CN1CCN(S(=O)(=O)c2ccc(-c3cnc(N)c(C(=O)Nc4cccnc4)n3)cc2)CC1 sit within?
Result: HIGH

====

Test system: LOC_OS01G02750-cb003
assay method text: thermal shift delta Tm vs DMSO control; higher = stronger stabilization (binding)
assay context: 12.5 µM; protein concentration 2 µM
Rule: thermal shift delta Tm under 1 °C gives n, otherwise y.

| compound | answer label |
| --- | --- |
| CN(C)CCCn1cc(C2=C(c3c[nH]c4ccccc34)C(=O)NC2=O)c2ccccc21 | n |

Ask: Has CN(C)C/C=C/C(=O)Nc1cc2c(Nc3ccc(F)c(Cl)c3)ncnc2cc1O[C@H]1CCOC1 [Afatinib (BIBW2992) Dimaleate] a recorded thermal shift delta Tm greater than or equal to 1 °C?
Result: y

Ask: Has CC(C)Nc1cc(-c2c[nH]c(C(=O)N[C@H](CO)c3cccc(Cl)c3)c2)c(Cl)cn1 a recorded thermal shift delta Tm greater than or equal to 1 °C?
Result: y

Ask: Has O=S(=O)(NCCNC/C=C/c1ccc(Br)cc1)c1cccc2cnccc12 a recorded thermal shift delta Tm greater than or equal to 1 °C?
Result: n

Ask: Has C[C@@H]1CN(C(=O)c2ccc(NC(=O)c3cc(O[C@H](C)c4c(Cl)ccc(F)c4Cl)c(N)nn3)cc2)C[C@H](C)N1 a recorded thermal shift delta Tm greater than or equal to 1 °C?
Result: y

Ask: Has COc1nccc(-c2c(-c3ccc(F)cc3)ncn2C2CCC(O)CC2)n1 (stereo not drawn) a recorded thermal shift delta Tm greater than or equal to 1 °C?
Result: y

Ask: Has COc1cccc2cc(-c3nc([C@H]4CC[C@H](C(=O)O)CC4)n4ncnc(N)c34)[nH]c12 a recorded thermal shift delta Tm greater than or equal to 1 °C?
Result: n

Ask: Has O=C1NC(=O)/C(=C/c2ccc(-c3ccc(F)cc3O)o2)S1 a recorded thermal shift delta Tm greater than or equal to 1 °C?
Result: y
